# TEST: qHTS of pediatric cancer cell lines to identify multiple opportunities for drug repurposing: Confirmatory screen for DAOY cells (AID 1347114); further: nearly all actives have a fitted effect of over 65% in size
# EXPERIMENTAL_CONTEXT: DAOY medulloblastoma cells viability, cytotoxicity qHTS; series mostly up to 45.9 µM
Results filed as inconclusive are left out. Activity calls are given as the source filed them. The call rests on the fitted dose curve; in most records, active means well fitted cell-killing curve with a large enough effect; inconclusive means small, poorly fitted or top-dose-only effect; inactive means no such curve, though single readings can be large or run the other way.
A correct response names exactly one class from active, inactive

What did the test return for `Nc1[nH]c(=O)ncc1F` ? inactive

What did the test return for `COc1cc([C@@H]2c3cc4c(cc3[C@H](O)[C@H]3COC(=O)[C@H]23)OCO4)cc(OC)c1OC` ? active

What did the test return for `CCOC(=O)c1ccc(C#Cc2ccc3c(c2)C(C)(C)CCS3)nc1` ? inactive

What did the test return for CC1CC2C3CCC4=CC(=O)C=C[C@]4(C)[C@@]3(F)[C@@H](O)C[C@]2(C)[C@@]1(O)C(=O)CO (stereo partly specified) ? inactive

What did the test return for `Cn1nnc2c(C(N)=O)ncn2c1=O` ? inactive

What did the test return for `CC(C)(C#N)c1cc(Cn2cncn2)cc(C(C)(C)C#N)c1` ? inactive

What did the test return for `CNS(=O)(=O)CCc1ccc2[nH]cc(C3CCN(C)CC3)c2c1` ? inactive

What did the test return for `CC(C)(C)C(=O)OCOP(=O)(COCCn1cnc2c(N)ncnc21)OCOC(=O)C(C)(C)C` ? inactive

What did the test return for `O=NN(CCCl)C(=O)NC1CCCCC1` ? inactive

What did the test return for `COC(=O)Nc1nc2ccc(C(=O)c3ccccc3)cc2[nH]1` ? active

What did the test return for `CNNCc1ccc(C(=O)NC(C)C)cc1` ? inactive

====

Task for the reader: assign each of the following compounds its reported Potency.
# TEST: qHTS profiling for inhibitors of Plasmodium falciparum proliferation (AID 504749); further: potency means the concentration at half of the fitted maximal effect; nearly all actives have a fitted effect of over 60% in size
# EXPERIMENTAL_CONTEXT: P. falciparum in erythrocytes, SYBR Green DNA, 72 h; parasite line B
Results filed as inconclusive are left out. Activity calls are given as the source filed them. Calls come from the whole dose curve; as a rule, active = well fitted inhibition curve with a large enough effect; inconclusive = small, poorly fitted or top-dose-only effect; inactive = flat fitted curve, though single readings scatter.

// Potency value for `C[C@@H](NCCCc1cccc(C(F)(F)F)c1)c1cccc2ccccc12` : 5.62 µM (active)

// Potency value for `Oc1c(Cl)cc(Cl)c2cccnc12` : 10 µM (active)

// Potency value for Cc1oc(=O)oc1CN1CCN(c2cc3c(cc2F)c(=O)c(C(=O)O)c2n3C(C)S2)CC1 (stereo not given) : 8.91 µM (active)

// Potency value for `CN(C)c1ccc(C(=C2C=CC(=[N+](C)C)C=C2)c2ccc(N(C)C)cc2)cc1` : 0.282 µM (active)

// Potency value for `COc1ccc2cc3[n+](cc2c1OC)CCc1cc2c(cc1-3)OCO2` : 1.26 µM (active)

====

# TEST: qHTS profiling of the MIPE4 collection as inhibitors of Plasmodium falciparum (DD2) proliferation (Rep 2) (AID 743346)
# EXPERIMENTAL_CONTEXT: P. falciparum Dd2 in erythrocytes, SYBR Green DNA, 72 h; at 28.5 µM (top of the series) unless noted
READOUT: parasite growth, % of control (lower = inhibition) (%)
Report as a plain number; the unit % is understood.

// parasite growth, % of control (lower = inhibition) value for `CNC(=O)c1cc(Oc2ccc(NC(=O)Nc3ccc(Cl)c(C(F)(F)F)c3)cc2)ccn1` : 33

// parasite growth, % of control (lower = inhibition) value for `CCC(=O)O[C@]1(C(=O)CCl)[C@@H](C)C[C@H]2[C@@H]3CCC4=CC(=O)C=C[C@]4(C)[C@@]3(F)[C@@H](O)C[C@@]21C` : 8.54

// parasite growth, % of control (lower = inhibition) value for `CCCc1cc(C(N)=S)ccn1` : 14

// parasite growth, % of control (lower = inhibition) value for `Cc1nnc(C(=O)NC(C)(C)c2nc(C(=O)NCc3ccc(F)cc3)c(O)c(=O)n2C)o1` : 81.9

// parasite growth, % of control (lower = inhibition) value for `COc1cc2nc(N3CCCN(C)CC3)nc(NC3CCN(Cc4ccccc4)CC3)c2cc1OC` : 7.33

====

# TEST: Quantitative High-Throughput drug screen in 47 multiple myeloma cell lines against the NCATS MIPE library collection: RPMI8226_ATCC cell viability assay (AID 1919871); further: nearly all actives have a fitted effect of over 30% in size
# EXPERIMENTAL_CONTEXT: RPMI8226 myeloma viability, CellTiter-Glo ATP luminescence, 48 h; series mostly up to 45.8 µM
Inconclusive results are not listed. Active and inactive are the calls of the source. The call rests on the fitted dose curve; in most records, active means well fitted cell-killing curve with a large enough effect; inconclusive means small, poorly fitted or top-dose-only effect, or effect the other way; inactive means no such curve, though single readings can be large or run the other way.
A correct response names exactly one class from active, inactive

What did the test return for `Cc1ccc(S(=O)(=O)N[C@@H](Cc2ccccc2)C(=O)CCl)cc1` ? active

What did the test return for `NNC(=O)c1ccncc1` ? inactive

What did the test return for CCCCS(=N)(=O)CCC(N)C(=O)O (centres undefined) ? inactive

What did the test return for COc1c(N2CCNC(C)C2)c(F)cc2c(=O)c(C(=O)O)cn(C3CC3)c12 (centres undefined) ? inactive

What did the test return for `CCCCc1oc2ccc(NS(C)(=O)=O)cc2c1C(=O)c1ccc(OCCCN(CCCC)CCCC)cc1` ? active

What did the test return for `CNC(=O)c1cc(Oc2ccc(NC(=O)Nc3ccc(Cl)c(C(F)(F)F)c3)cc2)ccn1` ? active

What did the test return for Cn1c(=O)c2c(ncn2CC(O)CO)n(C)c1=O (centres undefined) ? inactive

What did the test return for `C#CCN[C@@H]1CCc2ccccc21` ? active

What did the test return for `COc1ccc(-c2ccc3cc(C(=O)O)ccc3c2)cc1C12CC3CC(CC(C3)C1)C2` ? active

What did the test return for `CCOC(=O)c1ccc(C#Cc2ccc3c(c2)C(C)(C)CCS3)nc1` ? inactive

What did the test return for `COc1ccc2c(c1)c(CC(=O)OCC(=O)O)c(C)n2C(=O)c1ccc(Cl)cc1` ? inactive

What did the test return for CC(C)C1CCC(C(=O)N[C@H](Cc2ccccc2)C(=O)O)CC1 (some centres undefined) ? active

What did the test return for `COc1cc(NS(=O)(=O)c2ccc(N)cc2)nc(OC)n1` ? inactive

What did the test return for `COc1cccc(N(C)C(=S)Oc2ccc3c(c2)CCCC3)n1` ? active

What did the test return for `CCc1c2c(nc3ccc(OC(=O)N4CCC(N5CCCCC5)CC4)cc13)-c1cc3c(c(=O)n1C2)COC(=O)[C@]3(O)CC` ? active

What did the test return for `CN(C)c1ccc(C(=C2C=CC(=[N+](C)C)C=C2)c2ccc(N(C)C)cc2)cc1` ? active

What did the test return for NS(=O)(=O)c1cc2c(cc1Cl)NC(C(Cl)Cl)NS2(=O)=O (centres undefined) ? inactive

What did the test return for `CCCc1cc(C(N)=S)ccn1` ? inactive

What did the test return for `CC(C)C[C@H](NC(=O)[C@H](CCc1ccccc1)NC(=O)CN1CCOCC1)C(=O)N[C@@H](Cc1ccccc1)C(=O)N[C@@H](CC(C)C)C(=O)[C@@]1(C)CO1` ? active

====

# Test system: NIH3T3
# TEST: Cytotoxic Profiling of Annotated Libraries Using Quantitative High-Throughput Screening (AID 1296008); further: nearly all actives have a fitted effect of over 60% in size
# EXPERIMENTAL_CONTEXT: Five cell lines viability, CellTiter-Glo ATP luminescence, 48-72 h
Results filed as inconclusive are left out. The source made the active and inactive calls. Calls follow the shape of the dose curve; as a rule, active = well fitted inhibition curve with a large enough effect; inconclusive = small, poorly fitted or top-dose-only effect; inactive = flat fitted curve, though single readings scatter.
A correct response names exactly one class from active, inactive

What did the test return for COC(=O)Nc1nc2ccc(S(=O)c3ccccc3)cc2[nH]1 (stereo not given) ? active

What did the test return for CCN(CC)CC#CCOC(=O)C(O)(c1ccccc1)C1CCCCC1 (stereo not given) ? inactive

What did the test return for `CCC(=O)O[C@]1(C(=O)CCl)[C@@H](C)C[C@H]2[C@@H]3CCC4=CC(=O)C=C[C@]4(C)[C@@]3(F)[C@@H](O)C[C@@]21C` ? inactive

What did the test return for `CCCOc1ccc(C(=O)OCCN(CC)CC)cc1N` ? inactive

What did the test return for `CCOC(=O)c1ccc(C#Cc2ccc3c(c2)C(C)(C)CCS3)nc1` ? inactive

====

# TEST: P-glycoprotein substrates identified in KB-8-5-11 adenocarcinoma cell line, qHTS therapeutic library screen (AID 1346987); further: nearly all actives have a fitted effect of over 65% in size
# EXPERIMENTAL_CONTEXT: KB-8-5-11 (P-gp overexpressing) viability, CellTiter-Glo, 72 h; series mostly up to 44.5 µM
Inconclusive results are not listed. Calls of active or inactive are those of the source. The call rests on the fitted dose curve; in most records, active means well fitted inhibition curve with a large enough effect; inconclusive means small, poorly fitted or top-dose-only effect; inactive means flat fitted curve, though single readings scatter.
A correct response names exactly one class from active, inactive

What did the test return for `CC1(C)[C@H](C(=O)O)N2C(=O)C[C@H]2S1(=O)=O` ? inactive

What did the test return for `OC(Cn1cncn1)(Cn1cncn1)c1ccc(F)cc1F` ? inactive

What did the test return for `Cc1ncc([N+](=O)[O-])n1CCO` ? inactive

What did the test return for `CC(C)(C)C(=O)OCOP(=O)(COCCn1cnc2c(N)ncnc21)OCOC(=O)C(C)(C)C` ? inactive

What did the test return for `Cc1ccnc2c1NC(=O)c1cccnc1N2C1CC1` ? inactive

What did the test return for `CCOC(=O)c1ccc(OC(=O)CCCCCN=C(N)N)cc1` ? inactive

What did the test return for `COc1ccc2cc3[n+](cc2c1OC)CCc1cc2c(cc1-3)OCO2` ? inactive

What did the test return for Nc1nc(N)c2nc(CNc3ccc(C(=O)NC(CCC(=O)O)C(=O)O)cc3)cnc2n1 (configuration not stated) ? active

What did the test return for `Cn1nnc2c(C(N)=O)ncn2c1=O` ? inactive

What did the test return for `NC(N)=NC(N)=NCCc1ccccc1` ? inactive

What did the test return for `Cc1cccc(Nc2ccncc2S(=O)(=O)NC(=O)NC(C)C)c1` ? inactive

What did the test return for COC(=O)Nc1nc2ccc(S(=O)c3ccccc3)cc2[nH]1 (configuration not stated) ? active
